# Assay system: Melanocortin receptor 4 (Homo sapiens, UniProt P32245)
# Sequence (P32245 whole entry): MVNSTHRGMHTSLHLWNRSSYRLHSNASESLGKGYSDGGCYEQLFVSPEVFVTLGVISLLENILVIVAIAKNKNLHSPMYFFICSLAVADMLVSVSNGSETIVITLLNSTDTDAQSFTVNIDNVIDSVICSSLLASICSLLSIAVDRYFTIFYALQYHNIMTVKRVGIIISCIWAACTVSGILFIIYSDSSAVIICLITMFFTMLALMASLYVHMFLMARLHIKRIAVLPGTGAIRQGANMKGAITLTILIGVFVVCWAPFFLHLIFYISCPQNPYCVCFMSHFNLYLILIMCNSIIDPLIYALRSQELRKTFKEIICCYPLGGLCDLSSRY
# Experiment description: inhibitors of MC4R cAMP signaling – cell-based, TR-FRET, biased antagonists, dose response (AID 602298);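 note: antagonist potency against agonist-stimulated cAMP production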
# Assay type: functional
The source made the active and inactive calls.
Tick one outcome: active, inactive

Lookup: Recorded test outcome, item C#CC(=O)N(c1ccc(OC)c(OC)c1)C(C(=O)NC1CCCC1)c1cccs1 (stereo not given)
Found: active

Lookup: Again, but for "COc1cccc(C(=O)C(C#N)=C(SC)SC)c1"
Found: inactive

Lookup: Again, but for "CC(C)(CNC(=O)c1ccc([N+](=O)[O-])c(Cl)c1)CNC(=O)c1ccc([N+](=O)[O-])c(Cl)c1"
Found: inactive

Lookup: Again, but for "[H]/N=C(\N/C(=N/[H])NCCCCCCNC(=N)NC(=N)Nc1ccc(Cl)cc1)Nc1ccc(Cl)cc1"
Found: active

Lookup: Again, but for "O=C(Nc1ccccc1-c1nc2ccccc2[nH]1)c1ccc(N2C(=O)CCC2=O)cc1"
Found: inactive

====

# Assay system: UniProt P43351
# Sequence (P43351 whole entry): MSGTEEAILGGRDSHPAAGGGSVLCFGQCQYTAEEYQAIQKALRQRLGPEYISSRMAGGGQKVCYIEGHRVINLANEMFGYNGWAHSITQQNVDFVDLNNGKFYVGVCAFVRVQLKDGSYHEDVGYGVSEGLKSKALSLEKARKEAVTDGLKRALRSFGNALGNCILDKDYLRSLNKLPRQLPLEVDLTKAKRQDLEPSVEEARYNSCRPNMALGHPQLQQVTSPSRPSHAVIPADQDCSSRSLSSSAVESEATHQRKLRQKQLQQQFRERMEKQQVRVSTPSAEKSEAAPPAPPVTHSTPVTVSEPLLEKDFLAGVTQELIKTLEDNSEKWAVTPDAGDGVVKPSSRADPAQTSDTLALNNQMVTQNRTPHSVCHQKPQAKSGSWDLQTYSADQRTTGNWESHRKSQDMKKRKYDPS
# Type: functional, biochemical
Counter-ions that a name gives are not always drawn. Activity calls are given as the source filed them.
Measurement name: AC50

Lookup: Dear colleague, I am looking for the recorded AC50 of the following molecule: "COc1cc2nc(O)c(C(=O)NCCCN3CCOCC3)c(O)c2cc1OC"
Found: 15 µM (active)

Lookup: Again, but for "CN(C)CCN1CCN(c2cc(-c3cccc(Cl)c3)nc3ccnn23)CC1"
Found: 6.97 µM (active)

Lookup: Again, but for NCC(O)c1cc(O)c(O)cc1F (stereo unspecified)
Found: 6.44 µM (active)

Lookup: Again, but for CSc1ccc2c(c1)C(N1CCN(C)CC1)Cc1ccccc1S2 (stereo unspecified) [METHIOTHEPIN MESYLATE]
Found: 18.7 µM (active)

Lookup: Again, but for "CCOc1ccc(C(C)=O)cc1Cn1ccsc1=N"
Found: 4.87 µM (active)

Lookup: Again, but for "CN(C)CCCNC(=O)c1ccc(-c2cc3nc(NCc4cccnc4)n(C)c(=O)c3s2)cc1"
Found: 13.3 µM (active)

====

Assignment: determine reported AC50 for the given compounds.
# Test system: INS1
# Experiment description: INS-1E survival protection against cytokine death – cell-based, luminescence, retest, dose response (AID 449756);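 note: cell death triggered by IL-1 beta plus TNF-alpha plus IFN-gamma mixture; protective hits raise ATP signal compared with cytokine alone wells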
# Format: functional
# Assay setup: Rattus norvegicus, INS1
Calls of active or inactive are those of the source.

Lookup: Dear colleague, I am looking for the recorded AC50 of the following compound: "O=C(CSC1=NCCS1)Nc1ccnc2ccccc12"
Found: 12.1 µM (active)

Lookup: Again, but for "CC(C)COC(=O)c1ccc2c(c1O)C(=O)c1ccccc1C2=O"
Found: 10.9 µM (active)

Lookup: Again, but for "COC(=O)c1sccc1S(=O)(=O)Nc1ccc(N2CCCCC2)cc1"
Found: 29 µM (active)

Lookup: Again, but for "Cc1ccc2nc(-c3ccccn3)c(Nc3ccccc3C)n2c1"
Found: 6.06 µM (active)

====

Assignment: determine reported AC50 for the given compounds.
# Assay system: Paired box protein Pax-8 (Homo sapiens)
# Sequence (Q06710 whole entry): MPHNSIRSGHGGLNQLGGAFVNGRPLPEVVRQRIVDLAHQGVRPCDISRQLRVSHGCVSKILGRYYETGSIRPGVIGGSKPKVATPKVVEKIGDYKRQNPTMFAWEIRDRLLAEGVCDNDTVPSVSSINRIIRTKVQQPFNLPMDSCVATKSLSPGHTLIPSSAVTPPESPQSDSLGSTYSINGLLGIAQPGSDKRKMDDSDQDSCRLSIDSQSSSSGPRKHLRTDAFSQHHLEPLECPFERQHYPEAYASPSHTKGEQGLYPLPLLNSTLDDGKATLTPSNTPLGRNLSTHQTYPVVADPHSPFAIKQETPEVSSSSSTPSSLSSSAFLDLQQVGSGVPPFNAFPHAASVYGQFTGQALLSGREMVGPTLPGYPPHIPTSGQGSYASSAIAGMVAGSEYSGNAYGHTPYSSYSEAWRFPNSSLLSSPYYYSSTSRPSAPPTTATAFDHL
# Experiment description: PAX8 transcriptional activity inhibition in RMG-I – RMG-I cells, luciferase, cherry-pick, dose response (AID 687027);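 note: luciferase reporter driven by Pax8 target thyroperoxidase promoter measured by SteadyGlo luminescence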
# Format: functional, cell-based
Activity calls are given as the source filed them.

Lookup: Form field: AC50 recorded for "C/N=c1\scc(-c2cccs2)n1/N=C/c1ccccc1O" with Paired box protein Pax-8 (Homo sapiens) (enter value)
Found: < 0.26 µM (active)

Lookup: Again, but for "O=S(=O)(c1ccccc1F)N1CC[C@@H]2[C@@H](CO)Nc3ccc(C4=CCCCC4)cc3[C@@H]21"
Found: 10.5 µM (active)

Lookup: Again, but for "COc1ccc(-c2ccc3c(c2)[C@@H]2[C@@H](CCN2C(=O)C2CCCC2)[C@H](CO)N3C)cc1"
Found: 14.2 µM (active)

Lookup: Again, but for Cc1ccc2c(c1)c1c3n2CCN(CC(N)=O)C3CCC1 (centres undefined)
Found: 6.82 µM (active)

Lookup: Again, but for "CCCc1ccc(C(=O)O/N=C(\N)c2ccccn2)cc1"
Found: 5.93 µM (active)

Lookup: Again, but for "CN1C(=O)c2cc(NC(=O)c3cccc(Cl)c3)ccc2OC[C@@H]2O[C@H](CC(=O)NC3CCCCC3)CC[C@@H]21"
Found: 7.9 µM (active)

Lookup: Again, but for "C[C@H](CO)N1C[C@H](C)[C@@H](CN(C)C(=O)Nc2ccc3c(c2)OCO3)Oc2cc(C#Cc3ccncc3)ccc2S1(=O)=O"
Found: 3.02 µM (active)

Lookup: Again, but for "COc1cccc2sc(N(CCCN(C)C)C(=O)CCS(=O)(=O)c3ccccc3)nc12"
Found: 7.04 µM (active)

Lookup: Again, but for CCCCC(=O)NC(c1ccccc1OC)c1ccc2cccnc2c1O (centres undefined)
Found: 2.44 µM (active)

====

# Assay system: Streptokinase A (Streptococcus pyogenes serotype M1)
# Sequence (P10520 whole entry): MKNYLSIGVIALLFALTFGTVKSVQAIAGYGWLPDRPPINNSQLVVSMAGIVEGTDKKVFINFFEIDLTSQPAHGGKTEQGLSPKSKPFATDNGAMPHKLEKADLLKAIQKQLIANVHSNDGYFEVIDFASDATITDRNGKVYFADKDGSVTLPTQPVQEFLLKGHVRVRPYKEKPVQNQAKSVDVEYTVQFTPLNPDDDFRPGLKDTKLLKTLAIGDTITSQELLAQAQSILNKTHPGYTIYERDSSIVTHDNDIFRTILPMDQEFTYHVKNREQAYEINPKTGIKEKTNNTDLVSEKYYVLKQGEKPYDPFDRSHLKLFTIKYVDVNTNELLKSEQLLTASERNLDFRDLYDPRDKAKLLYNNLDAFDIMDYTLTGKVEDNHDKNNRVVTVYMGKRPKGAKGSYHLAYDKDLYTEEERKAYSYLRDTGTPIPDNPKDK
# Experiment description: viability-normalized secreted streptokinase activity reduction – plasminogen activation absorbance, OD405, dose response (AID 1914);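 note: secreted streptokinase activity via plasminogen activation per viability signal from cell pellet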
# Type: functional, Streptococcus pyogenes M1 GAS
Assignment: determine reported EC50 for the given molecules.

Lookup: Dear colleague, I am looking for the recorded EC50 of the following molecule: CCC(C(=O)NCCCN1CCCC1=O)n1c2ccccc2c2nc(=O)cc(C)n21 (stereo not given)
Found: > 150 µM (not active)

Lookup: Again, but for "COc1ccc(NC(=O)Cn2nnc(C(=O)NCc3cccs3)c2N)cc1Cl"
Found: > 150 µM (not active)

Lookup: Again, but for "O=C(NC(=S)NNC(=O)c1ccc(Cl)cc1Cl)c1cccnc1"
Found: > 150 µM (not active)

Lookup: Again, but for "Cc1cc(C)cc(-n2c(C)cc(/C=C3\C(=N)N4N=C(CC(C)C)SC4=NC3=O)c2C)c1"
Found: > 50 µM (not active)

Lookup: Again, but for "CC(C)(C)c1csc(NNC(=O)c2ccc(Br)cc2)n1"
Found: > 150 µM (not active)

====

# Experiment description: NIH3T3 cell viability loss – ATP luminescence, mouse fibroblasts, counter-screen, dose response (AID 2010);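 note: cells exposed to compound for about 90 hours before reading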
# Assay type: functional, cell-based
The source made the active and inactive calls.
Measurement name: EC50

Lookup: Dear colleague, I am looking for the recorded EC50 of the following compound: "N=C(NCCCCCCNC(=N)NC(=N)Nc1ccc(Cl)cc1)NC(=N)Nc1ccc(Cl)cc1"
Found: 7.82 µM (active)

Lookup: Again, but for COc1ccc(C2c3[nH]c4ccccc4c3CCN2Cc2cccn2-c2ncccn2)cc1C (stereo not given)
Found: > 60 µM (inconclusive)

Lookup: Again, but for "CCCC(=O)N1CCN(c2ccc(NC(=O)c3ccc([N+](=O)[O-])o3)cc2Cl)CC1"
Found: 2.96 µM (active)

Lookup: Again, but for "Oc1nc(Nc2nc3ccccc3o2)nc2c1CCCC2"
Found: 3.87 µM (active)

Lookup: Again, but for Cc1cccc(N2CCN(C(c3ccncc3)c3nnnn3C(C)(C)C)CC2)c1C (stereo not given)
Found: > 60 µM (not active)

Lookup: Again, but for CC1C(=O)OC2C1CCC1(C)CCC(=O)C(C)C21 (stereo not given)
Found: > 60 µM (not active)

Lookup: Again, but for "c1ccc(-c2cc(-c3nc4ccccc4[nH]3)c3ccccc3n2)cc1"
Found: > 60 µM (not active)

Lookup: Again, but for COc1cccc(CC2(CO)CCCN(Cc3cc4ccccc4[nH]3)C2)c1 (stereo not given)
Found: > 60 µM (not active)

Lookup: Again, but for "NC(=S)N/N=C/c1ccc(C23CC4CC(CC(C4)C2)C3)cc1"
Found: 7.3 µM (active)

Lookup: Again, but for "CCOc1ccc(C(=O)Nc2c(C(=O)N3CCC(N4CCCCC4)CC3)oc3ccccc23)cc1"
Found: > 60 µM (not active)

====

# Assay system: Sentrin-specific protease 6 (Homo sapiens, UniProt Q9GZR1)
# Sequence (Q9GZR1 whole entry): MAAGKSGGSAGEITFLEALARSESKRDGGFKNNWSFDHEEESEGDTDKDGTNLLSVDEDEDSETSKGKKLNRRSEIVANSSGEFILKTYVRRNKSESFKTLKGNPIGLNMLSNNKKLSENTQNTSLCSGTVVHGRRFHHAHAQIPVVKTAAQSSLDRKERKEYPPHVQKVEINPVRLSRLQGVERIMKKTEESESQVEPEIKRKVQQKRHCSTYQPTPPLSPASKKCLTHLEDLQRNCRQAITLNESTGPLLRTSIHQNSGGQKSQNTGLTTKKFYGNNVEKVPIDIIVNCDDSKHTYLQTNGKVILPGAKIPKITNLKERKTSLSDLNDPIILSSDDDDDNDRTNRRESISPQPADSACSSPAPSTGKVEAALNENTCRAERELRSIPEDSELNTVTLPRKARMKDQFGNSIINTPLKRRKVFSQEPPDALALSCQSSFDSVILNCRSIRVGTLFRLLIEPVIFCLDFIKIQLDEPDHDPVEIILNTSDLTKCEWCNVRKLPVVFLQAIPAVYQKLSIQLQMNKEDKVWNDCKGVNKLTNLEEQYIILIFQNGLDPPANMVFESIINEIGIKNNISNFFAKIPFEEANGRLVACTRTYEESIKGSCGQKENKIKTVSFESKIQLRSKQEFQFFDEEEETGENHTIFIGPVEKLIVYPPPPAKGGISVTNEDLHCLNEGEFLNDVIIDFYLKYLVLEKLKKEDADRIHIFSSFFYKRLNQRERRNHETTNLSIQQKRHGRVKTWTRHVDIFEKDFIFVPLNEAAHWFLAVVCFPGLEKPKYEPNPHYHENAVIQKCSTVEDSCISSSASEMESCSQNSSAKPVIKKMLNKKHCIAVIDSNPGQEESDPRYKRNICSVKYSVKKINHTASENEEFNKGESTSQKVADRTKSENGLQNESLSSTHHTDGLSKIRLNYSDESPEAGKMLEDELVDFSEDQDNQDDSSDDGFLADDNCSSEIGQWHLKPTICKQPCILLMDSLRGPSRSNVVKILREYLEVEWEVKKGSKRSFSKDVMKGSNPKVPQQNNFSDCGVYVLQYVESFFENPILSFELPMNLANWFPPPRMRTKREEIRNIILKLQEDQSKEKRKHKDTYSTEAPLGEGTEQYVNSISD
# Experiment description: SAR Analysis of small molecule inhibitors of Sentrin-specific protease 6 (SENP6) using a Luminescent assay. [Related pubchem assays (depositor defined):AID2582, AID2599]
# Assay type: functional
The source made the active and inactive calls.
Assignment: determine reported IC50 for the given compounds.

Lookup: Dear colleague, I am looking for the recorded IC50 of the following compound: "CSc1nc2ccc(NC(=O)c3cc4ccccc4o3)cc2s1"
Found: 0.905 µM (active)

Lookup: Again, but for "Fc1ccc(/C=C/c2noc(-c3ccccc3I)n2)cc1"
Found: 20 µM (active)

Lookup: Again, but for "Oc1ccccc1-c1nc(/C=C/c2ccccc2)no1"
Found: 8.4 µM (active)

Lookup: Again, but for "O=C(NN=c1c(=O)c2ccccc2c1=O)c1ccccc1"
Found: 5.31 µM (active)

Cited source for all entries: ChEMBL document CHEMBL1201862
